B1: TMEM175 (parent)
chain: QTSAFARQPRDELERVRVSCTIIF

# Variants of: B1
# test_details: protein stability index of a GFP-peptide fusion (GPS, HEK-293T) (PSI 1-6); higher = more stable;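 note: lentivirally expressed fusions sorted by FACS into six bins by GFP to DsRed ratio, PSI derived from sequencing read proportions per bin multiplied by bin number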
# condition: c terminus: a fixed tail appended
reported_endpoint: protein stability index
Give the value as a plain number.

Lab book: protein stability index of A6T noted as 1.44

Lab book: protein stability index of A4R noted as 2.89

Lab book: protein stability index of I22P noted as 3.2

***
Lab book: protein stability index of R15E noted as 3.77

Lab book: protein stability index of S3E noted as 2.02

Lab book: protein stability index of Q8A noted as 1.48

meta.source: the supplement of paper PMC10567573
